meta.source: PubChem BioAssay AID179

- Test system: CEM cells HIV-1 protection, formazan growth assay
- EXPERIMENTAL PROTOCOL: NCI AIDS Antiviral Assay
MEASURED METRIC: EC50

COC(=O)C(Cc1nc2ccc(Cl)cc2[nH]c1=O)C(=O)C(=O)Nc1ccccc1[N+](=O)[O-] (configuration not stated) | > 148 µM

Here is another molecule to look at.
Exam item: # get_value(readout='EC50', item= O=C1CN2C(c3ccccc3)=NN(c3ccc([N+](=O)[O-])cc3)C2(c2ccccc2)c2cc(Cl)ccc2N1CC1CC1 (configuration not stated) )
Marked response: > 100 µM

* * *

- System: CEM cells HIV-1 protection, formazan growth assay
- EXPERIMENTAL PROTOCOL: NCI AIDS Antiviral Assay
- CONDITION LABEL: measured here: growth of uninfected CEM cells
MEASURED METRIC: log10 of IC50 (log10 of the value in µM)
Could you please treat all values as log10 of IC50 in µM?

CCOP(=O)(OCC)/C(C#N)=C/c1ccc(Br)cc1 | 2.21
CCc1cccc(C(C)(C)C)c1NC(=S)/N=C/C(C(=O)c1ccccc1)=C(\O)c1ccccc1 | 1.71
COC(=O)/C=C\C(C#N)(C#N)N=Cc1cccc(OC)c1 | 0.10
CC(C)C(/C=C/c1ccccc1)=N\NC(=S)NN | 2.01
CN1C(=O)CN(NC(=O)C2=C(O)c3ccc(Br)cc3S(=O)(=O)N2)C1=S | 1.71
CC12CCC(=O)C=C1CCC1C2CCC2(C)C1CCC2(O)C1(O)CCC2C3CCC4=CC(=O)CCC4(C)C3CCC21C (stereo not given) | 1.74
FC(F)(Sc1ccccc1)c1nc2ccccc2o1 | 1.82
Cc1ccc(-n2c(=S)n(-c3ccccc3C)c3nc4ccccc4nc2/c3=N\Nc2ccc(Cl)cc2)cc1 | 2.09

Exam item: # get_value(readout='log10 of IC50', item= CN1CC(C)(C)C(O)c2ccccc21 (stereo not given) )
Marked response: 2.72

Exam item: # get_value(readout='log10 of IC50', item= COc1cc2c(c(Cl)c1OC)CCN(C)CC2c1ccccc1 (stereo not given) )
Marked response: 1.85

Exam item: # get_value(readout='log10 of IC50', item= C/C1=C\[C@H](C)C[C@H](C)OC(=O)C[C@H](c2ccc(O)cc2)NC(=O)[C@@H](Cc2c(Br)[nH]c3ccccc23)N(C)C(=O)[C@H](C)NC(=O)[C@@H](C)C1 )
Marked response: -1.52

Exam item: # get_value(readout='log10 of IC50', item= CCOC(=O)c1[nH]cc(C)c1-c1ccc2c(-c3ccccc3)nc3ccccc3n12 )
Marked response: 0.50

Exam item: # get_value(readout='log10 of IC50', item= CC(=O)N1C(Nc2cnc3ccccc3c2)CCN1c1ccccc1 (stereo not given) )
Marked response: 1.25

* * *

- Test system: CEM cells HIV-1 protection, formazan growth assay
- EXPERIMENTAL PROTOCOL: NCI AIDS Antiviral Assay;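 active = compounds giving half or more protection of infected cells from virus-caused growth loss, again on retest; inactive = the rest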
Bench note: report the call from true (1) for active, false (0) for inactive

Cc1ccc2ccc3c(-c4ccccc4)cc(C)nc3c2n1.Cc1ccc2ccc3c(-c4ccccc4)cc(C)nc3c2n1.O=C1OC(C(O)C[O-])C(O)=C1O.[Cu+] | false (0)
CC(=O)OCC1OC(n2ccc(-n3cncn3)nc2=O)CC1N=[N+]=[N-] (stereo unspecified) | true (1)
N#CN=C(N)NC#N | false (0)

Exam item: Which outcome was assigned to CCCCCCCCCCCc1c(O)c(O)cc2nc3cc(Cl)c(Cl)cc3nc12 in this test?
Marked response: false (0)

Exam item: Which outcome was assigned to CC(=O)NNc1nc(C)c(C(/C=C/c2ccc(Cl)cc2)=N/NC(=O)C[N+](C)(C)C)s1 in this test?
Marked response: false (0)

Exam item: Which outcome was assigned to O=c1c2ccccc2oc2c(Cl)cc(Cl)cc12 in this test?
Marked response: false (0)

Exam item: Which outcome was assigned to CCC(=O)N1C(=O)C(C)C23c4cc(OC)c(OC)cc4C(=O)N2CCCN13 (stereo unspecified) in this test?
Marked response: false (0)

Exam item: Which outcome was assigned to CNC(=O)Oc1ccc(Cl)cc1SSc1cc(Cl)ccc1OC(=O)NC in this test?
Marked response: false (0)

Exam item: Which outcome was assigned to C(=N\NC1=NCCN1)/c1ccc2ccccc2c1 in this test?
Marked response: false (0)

Exam item: Which outcome was assigned to CN(C)Cc1cc(N=Nc2c(Cl)cccc2Cl)ccc1O in this test?
Marked response: false (0)

Exam item: Which outcome was assigned to COC(=O)c1ccc2c(O)c(O)ccc2c1 in this test?
Marked response: false (0)

* * *

EC50 listing for selected compounds.
- Tested on: CEM cells HIV-1 protection, formazan growth assay
- EXPERIMENTAL PROTOCOL: NCI AIDS Antiviral Assay

Example entries and their recorded answers appear below.
C=C1C(=O)O[C@H]2C/C(C=O)=C\[C@H]3O[C@H]3/C(COC(=O)C(C)C)=C/CC12 (stereo partly drawn) | > 200 µM
CCN1CN(c2ccccc2)C2(CCN(CC3COc4ccccc4O3)CC2)C1=O (stereo not drawn) | > 200 µM
C=Cc1ccc(C)[n+](C[Si](C)(C)O[Si](C)(C)C[n+]2cc(C=C)ccc2C)c1 | > 380 µM
FC1(F)ON2CCc3ccccc3C2[C@H]1c1ccccc1 (stereo partly drawn) | > 200 µM
COc1ccccc1NC(=O)C(CC(C(=O)Nc1ccccc1OC)/C(C)=N/NC(=O)c1ccccc1O)/C(C)=N/NC(=O)c1ccccc1O (stereo not drawn) | > 51.3 µM
N#C/C(=C\c1ccc(-c2ccccc2)cc1)c1ccc([N+](=O)[O-])cc1 | > 200 µM

Exam item: Item: COC(=O)/C=C/COCC1C2CCC(=O)C21 (stereo not drawn) Test system: CEM cells HIV-1 protection, formazan growth assay Read-out: EC50 Value: ?
Marked response: > 151 µM

Exam item: Item: N#Cc1ccc(Nc2cnc3cc(N)ccc3n2)cc1 Test system: CEM cells HIV-1 protection, formazan growth assay Read-out: EC50 Value: ?
Marked response: > 20 µM

Exam item: Item: COC(=O)C1=C(C(=O)OC)C(N(C)C)C(C(=O)OC)=C(C(=O)OC)S1 Test system: CEM cells HIV-1 protection, formazan growth assay Read-out: EC50 Value: ?
Marked response: > 200 µM

Exam item: Item: O=c1cc(-c2ccccc2)oc2c1ccc1[nH]c3ccccc3c(=O)c12 Test system: CEM cells HIV-1 protection, formazan growth assay Read-out: EC50 Value: ?
Marked response: > 200 µM

* * *

EC50 listing for selected molecules.
- System: CEM cells HIV-1 protection, formazan growth assay
- EXPERIMENTAL PROTOCOL: NCI AIDS Antiviral Assay

Example entries and their recorded answers appear below.
C/C(=N/NC(=S)N1CCCCCC1)c1ccccc1O | > 200 µM
NC(=O)C12C(=O)NC(=O)C1(C(=O)O)C21CCCC1 (stereo unspecified) | > 200 µM
Cc1ccc(C2=Nc3c(N)nc(N)nc3NC(c3ccccc3)C2)cc1 (stereo unspecified) | > 200 µM
Cn1c(=O)c2[nH]c(NN)nc2n(C)c1=O | > 200 µM
CC(C)C(/C=C/c1ccc(Cl)c(Cl)c1)=N\NC(=O)N/N=C(/C=C/c1ccc(Cl)c(Cl)c1)C(C)C | > 200 µM

Exam item: # get_value(readout='EC50', item= CN(N)c1cnn(-c2ccccc2)c(=O)c1Cl )
Marked response: > 200 µM

Exam item: # get_value(readout='EC50', item= Cc1ccc(NC(=O)/C(CC(=O)c2sc(Nc3ccccc3Cl)nc2C)=N\Nc2ccc([N+](=O)[O-])cc2[N+](=O)[O-])c(C)c1 )
Marked response: > 200 µM

Exam item: # get_value(readout='EC50', item= CC1(Nc2ccccc2)OC(=O)c2ccccc21 (stereo unspecified) )
Marked response: > 200 µM

Exam item: # get_value(readout='EC50', item= CC1(c2ccccc2)CC12C(=O)NC(=O)NC2=O (stereo unspecified) )
Marked response: > 107 µM

Exam item: # get_value(readout='EC50', item= N#C/C=C\c1ccc(C#N)cc1 )
Marked response: > 64.6 µM

Exam item: # get_value(readout='EC50', item= CCOC(=O)/C(F)=C/c1ccc(F)cc1 )
Marked response: > 123 µM

* * *

pIC50 listing for selected compounds.
- Test system: CEM cells HIV-1 protection, formazan growth assay
- EXPERIMENTAL PROTOCOL: NCI AIDS Antiviral Assay
- CONDITION LABEL: measured here: growth of uninfected CEM cells
- Procedure: The ability of compounds to protect human CEM cells from HIV-1 infection is measured as a screen for new compounds capable of inhibiting the HIV virus. Five concentrations of drug were tested on uninfected and infected cells and cell growth was measured using a soluble formazan assay. […] Compounds that provided at least 50% protection were retested. Compounds that provided at least 50% protection on retest were listed as moderately active. […]
Reminder that pIC50 is minus the log10 of a molar concentration.

Example entries and their recorded answers appear below.
CC1(C)CC(C#Cc2ccccc2)CC(C)(C)N1O | 4.46
O=[N+]([O-])c1cccc2nccc(NCC(O)CO)c12 (stereo unspecified) | 5.21
O=C(O)c1c(Cl)c(Cl)c(Cl)c(Cl)c1-c1c2ccc(=O)c(O)c-2oc2c(O)c(O)ccc12 | 4.29
CN(C)CCCNc1nnc(NCCCN(C)C)c2c(=O)c3sccc3[nH]c12 | 5.57
CCOC(=O)C1C(C(C)C)C2(C#N)C(=N)OC1(C)C2(C#N)C#N (stereo unspecified) | 4.31

Here is another compound to look at.
Exam item: # get_value(readout='pIC50', item= COc1c(F)c(F)c(/C(O)=C\c2nc3ccccc3[nH]c2=O)c(F)c1F )
Marked response: 3.71
